# SYSTEM NAME: human CD33 S324A (human, UniProt P20138 18-364)
# Sequence (P20138 18-364 S324A limits assumed): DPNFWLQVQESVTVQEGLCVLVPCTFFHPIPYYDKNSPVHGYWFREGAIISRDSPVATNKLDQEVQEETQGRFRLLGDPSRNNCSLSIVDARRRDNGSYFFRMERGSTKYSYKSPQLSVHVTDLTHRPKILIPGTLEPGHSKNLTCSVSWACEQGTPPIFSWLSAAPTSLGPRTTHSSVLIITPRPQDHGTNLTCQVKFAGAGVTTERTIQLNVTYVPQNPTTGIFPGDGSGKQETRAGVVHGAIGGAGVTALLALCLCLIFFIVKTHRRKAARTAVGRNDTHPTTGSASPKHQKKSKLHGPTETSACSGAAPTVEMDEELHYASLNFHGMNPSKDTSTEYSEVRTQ
# PROTOCOL NOTES: flow cytometry, alanine scan
MEASUREMENT NAME: Mean % WT Binding

Give the measured Mean % WT Binding for Refmab #2 (antibody, V domains shown, The alanine scan used IgG or Fab) VH: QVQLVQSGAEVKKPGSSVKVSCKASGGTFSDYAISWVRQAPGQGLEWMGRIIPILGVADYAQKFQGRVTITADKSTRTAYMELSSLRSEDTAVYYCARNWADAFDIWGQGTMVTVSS VL: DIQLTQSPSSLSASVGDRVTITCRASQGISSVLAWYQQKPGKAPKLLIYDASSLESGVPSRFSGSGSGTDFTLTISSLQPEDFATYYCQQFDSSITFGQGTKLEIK 106 % of WT

Please look at this binder and report its Mean % WT Binding: Refmab #1 (antibody, V domains shown, The alanine scan used IgG or Fab; also called hP67.6) VH: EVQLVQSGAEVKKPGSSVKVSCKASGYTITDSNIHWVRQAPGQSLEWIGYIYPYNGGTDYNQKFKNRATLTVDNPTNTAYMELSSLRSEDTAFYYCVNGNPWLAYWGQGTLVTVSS VL: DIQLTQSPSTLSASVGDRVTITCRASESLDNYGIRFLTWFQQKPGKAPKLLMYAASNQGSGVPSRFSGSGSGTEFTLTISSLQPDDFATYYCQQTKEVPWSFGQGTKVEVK 97.8 % of WT

Supply recorded Mean % WT Binding for Refmab #4 (antibody, V domains shown, The alanine scan used IgG or Fab) VH: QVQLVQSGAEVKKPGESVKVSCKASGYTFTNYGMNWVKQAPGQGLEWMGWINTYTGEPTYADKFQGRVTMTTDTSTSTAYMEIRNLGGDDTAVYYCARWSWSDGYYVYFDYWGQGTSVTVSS VL: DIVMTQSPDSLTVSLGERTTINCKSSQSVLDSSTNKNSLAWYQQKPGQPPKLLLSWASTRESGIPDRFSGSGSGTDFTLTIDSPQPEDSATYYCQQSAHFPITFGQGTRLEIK here. 96.4 % of WT

Report Mean % WT Binding for Refmab #3 (antibody, V domains shown, The alanine scan used IgG or Fab) VH: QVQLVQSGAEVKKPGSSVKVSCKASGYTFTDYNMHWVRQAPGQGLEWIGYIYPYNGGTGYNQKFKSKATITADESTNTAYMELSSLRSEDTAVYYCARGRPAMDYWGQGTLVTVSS VL: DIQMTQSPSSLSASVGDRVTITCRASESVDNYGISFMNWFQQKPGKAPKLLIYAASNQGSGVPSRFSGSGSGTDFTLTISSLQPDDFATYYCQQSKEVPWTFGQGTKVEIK 109 % of WT
